settings: human gut metagenome, 24 h, 2 µM; note: call rule not given here
measurementType: Bacterial Biotransformation

Recorded Bacterial Biotransformation, per entry:
- compound: "CCCN(CCC)CCc1cccc2c1CC(=O)N2 [ROPINIROLE]"
  Bacterial Biotransformation: "Compound NOT metabolized"
- compound: "C[C@@H](c1ncncc1F)[C@](O)(Cn1cncn1)c1ccc(F)cc1F [VORICONAZOLE]"
  Bacterial Biotransformation: "Compound metabolized"
- compound: "CCS(=O)(=O)CCn1c([N+](=O)[O-])cnc1C [TINIDAZOLE]"
  Bacterial Biotransformation: "Compound metabolized"
- compound: "CC(C)(C)N.CCC[C@H](N[C@@H](C)C(=O)N1[C@H](C(=O)O)C[C@@H]2CCCC[C@@H]21)C(=O)OCC [PERINDOPRIL ERBUMINE]"
  Bacterial Biotransformation: "Compound NOT metabolized"
- compound: "CC(C)(C)NC(=O)[C@H]1CC[C@H]2[C@@H]3CC[C@H]4NC(=O)C=C[C@]4(C)[C@H]3CC[C@]12C [FINASTERIDE]"
  Bacterial Biotransformation: "Compound metabolized"
- compound: "Cc1ccccc1C(OCCN(C)C)c1ccccc1.O=C(O)CC(O)(CC(=O)O)C(=O)O (configuration not stated) [ORPHENADRINE CITRATE]"
  Bacterial Biotransformation: "Compound NOT metabolized"

Given C#C[C@]1(OC(C)=O)CC[C@H]2[C@@H]3CCC4=C/C(=N/O)CC[C@@H]4[C@H]3CC[C@@]21CC [NORGESTIMATE] , respond with its Bacterial Biotransformation.
Compound NOT metabolized
